- EXPERIMENT_SUMMARY: CC50 assay in the anti-HCV replicon assay (CellTiter-Glo)
- Type: cell-based, human
- APPLIED_CONDITIONS: human, Huh-7 hepatoma cells harbouring an HCV replicon; Huh-7 HCV replicon cells, 3 days incubation, CellTiter-Glo luminescence
CC50 at 3 days values by entry
ASSAY_ENDPOINT: CC50 at 3 days

Nc1nc(OCC2CCC2)c2cc(-c3cn[nH]c3)ccc2n1 : 10 to 20 µM
CCOc1nc(N)nc2ccc(-c3ccc(C(=O)NC4CC4)cc3)cc12 : > 20 µM
Nc1nc(OCCN2CCOCC2)c2cc(-c3ccc(O)cc3)ccc2n1 : > 20 µM
COCCOc1nc(N)nc2ccc(-c3cccs3)cc12 : > 20 µM
CCOc1nc(N)nc2ccc(-c3ccc(NC(C)=O)cc3)cc12 : > 20 µM
CNC(=O)c1ccc(-c2ccc3nc(N)nc(OC(C)C)c3c2)cc1 : 10 to 20 µM
Nc1nc(OC[C@@H]2CCCO2)c2cc(-c3ccc(C(=O)NC4CC4)cc3)ccc2n1 : > 20 µM
Nc1nc(OCC2CCC2)c2cc(-c3ccc(F)cc3)ccc2n1 : 10 to 20 µM
COCCOc1nc(N)nc2ccc(-c3ccc(F)cc3)cc12 : 10 to 20 µM

Values from patent US8673929B2
